Test system: MRK-nu-1 (Breast Carcinoma)
Assay: combination Emax (second highest fraction inhibited in the dose matrix, 72 h); higher = more inhibition; extreme values may be limits of the assay
Listing of entries alongside the reported combination Emax.

| compound | combination Emax |
| --- | --- |
| CN(CCO)CC[C@H](CSc1ccccc1)Nc1ccc(S(=O)(=O)NC(=O)c2ccc(N3CCC([C@@H](O)c4ccccc4-c4ccc(Cl)cc4)CC3)cc2)cc1S(=O)(=O)C(F)(F)F [AZD4320] + CS(=O)(=O)CCNCc1ccc(-c2ccc3ncnc(Nc4ccc(OCc5cccc(F)c5)c(Cl)c4)c3c2)o1 [Lapatinib] (first compound max 1 µM, 7x7, partner max 10 µM) | 0.387 |
| CN(CCO)CC[C@H](CSc1ccccc1)Nc1ccc(S(=O)(=O)NC(=O)c2ccc(N3CCC([C@@H](O)c4ccccc4-c4ccc(Cl)cc4)CC3)cc2)cc1S(=O)(=O)C(F)(F)F [AZD4320] + CCN(CCO)CCCOc1ccc2c(Nc3cc(CC(=O)Nc4cccc(F)c4)[nH]n3)ncnc2c1 [AZD2811] (first compound max 1 µM, 7x7, partner max 1 µM) | 0.863 |
| COc1cccc(OCCCN)c1-c1cc(Nc2cnc(C#N)cn2)n[nH]1 [Prexasertib] + C[C@@H]1COCCN1C2=NC(=NC(=C2)C3(CC3)[S@](=N)(=O)C)C4=C5C=CNC5=NC=C4 [AZD6738] (first compound max 1 µM, 7x7, partner max 10 µM) | 0.746 |
| CCc1c2c(nc3ccc(O)cc13)-c1cc3c(c(=O)n1C2)COC(=O)[C@]3(O)CC [SN-38] + CN(C)CCCOc1ccc(-c2ccc3ncc4c(c3c2)n(C2CCOCC2)c(=O)n4C)cn1 [AZD0156] (first compound max 0.3 µM, 7x7, partner max 1 µM) | 0.803 |
| NC1(C(=O)N[C@@H](CCO)c2ccc(Cl)cc2)CCN(c2ncnc3[nH]ccc23)CC1 [Capivasertib] + CC(C)n1c(=O)n(C)c2cnc3cc(F)c(-c4ccc(OCCCN5CCCCC5)nc4)cc3c21 [AZD1390] (first compound max 10 µM, 7x7, partner max 0.3 µM) | 0.576 |
| CC(=O)Nc1cccc(-n2c(=O)n(C3CC3)c(=O)c3c(Nc4ccc(I)cc4F)n(C)c(=O)c(C)c32)c1 [Trametinib] + Cc1nc(-c2cn3c(n2)-c2ccc(-c4cnn(C(C)(C)C(N)=O)c4)cc2OCC3)n(C(C)C)n1 [Taselisib] (first compound max 1 µM, 7x7, partner max 10 µM) | 0.814 |

====

System: Daudi (Burkitt's Lymphoma)
Assay: Bliss excess, mean over the matrix (fraction); higher = more synergy
Given measured Bliss excess, output T if it is greater than or equal to 0.006 and F if not.

| compound | measured-on | class-name |
| --- | --- | --- |
| COc1cccc(OCCCN)c1-c1cc(Nc2cnc(C#N)cn2)n[nH]1 [Prexasertib] + C[C@@H]1COCCN1C2=NC(=NC(=C2)C3(CC3)[S@](=N)(=O)C)C4=C5C=CNC5=NC=C4 [AZD6738] (first compound max 1 µM, 7x7, partner max 10 µM) | Daudi (Burkitt's Lymphoma) | F |
| Cc1c2c(nn1C)CSCc1cc(n(C)n1)CSc1cc(c3ccccc3c1)OCCCc1c(C(=O)O)n(C)c3c-2c(Cl)ccc13 [AZD5991] + Cc1cc2ncnn2cc1Nc1ncc2c(n1)n(C1CCOCC1)c(=O)n2C [AZD7648] (first compound max 1 µM, 7x7, partner max 10 µM) | Daudi (Burkitt's Lymphoma) | F |
| NC1(C(=O)N[C@@H](CCO)c2ccc(Cl)cc2)CCN(c2ncnc3[nH]ccc23)CC1 [Capivasertib] + COc1nnc2ccc(N3CCC(c4ccc(OCCN5CCN(C)C(=O)[C@H]5C)cc4)CC3)nn12 [AZD5153] (first compound max 10 µM, 7x7, partner max 1 µM) | Daudi (Burkitt's Lymphoma) | T |
| NC1(C(=O)N[C@@H](CCO)c2ccc(Cl)cc2)CCN(c2ncnc3[nH]ccc23)CC1 [Capivasertib] + C[C@@H]1COCCN1C2=NC(=NC(=C2)C3(CC3)[S@](=N)(=O)C)C4=C5C=CNC5=NC=C4 [AZD6738] (first compound max 10 µM, 7x7, partner max 10 µM) | Daudi (Burkitt's Lymphoma) | T |
| COc1cccc(OCCCN)c1-c1cc(Nc2cnc(C#N)cn2)n[nH]1 [Prexasertib] + O=C(c1cc(Cc2n[nH]c(=O)c3ccccc23)ccc1F)N1CCN(C(=O)C2CC2)CC1 [Olaparib] (first compound max 1 µM, 7x7, partner max 10 µM) | Daudi (Burkitt's Lymphoma) | F |
| CC1(C)CCC(CN2CCN(c3ccc(C(=O)NS(=O)(=O)c4ccc(NCC5CCOCC5)c([N+](=O)[O-])c4)c(Oc4cnc5[nH]ccc5c4)c3)CC2)=C(c2ccc(Cl)cc2)C1 [Venetoclax] + COc1cc(Nc2ncc3c(n2)-c2ccc(Cl)cc2C(c2c(F)cccc2OC)=NC3)ccc1C(=O)O [Alisertib] (first compound max 1 µM, 7x7, partner max 10 µM) | Daudi (Burkitt's Lymphoma) | F |

====

Tested on: HT-3 (Cervical Carcinoma)
Experiment: Bliss excess, mean over the matrix (fraction); higher = more synergy
reported-metric: Bliss excess

| molecule | measured-on | reported-metric | reported |
| --- | --- | --- | --- |
| CCc1c2c(nc3ccc(O)cc13)-c1cc3c(c(=O)n1C2)COC(=O)[C@]3(O)CC [SN-38] + CN(C)CCCOc1ccc(-c2ccc3ncc4c(c3c2)n(C2CCOCC2)c(=O)n4C)cn1 [AZD0156] (first compound max 0.3 µM, 7x7, partner max 1 µM) | HT-3 (Cervical Carcinoma) | Bliss excess | 0.0499 |
| CC1(C)CCC(CN2CCN(c3ccc(C(=O)NS(=O)(=O)c4ccc(NCC5CCOCC5)c([N+](=O)[O-])c4)c(Oc4cnc5[nH]ccc5c4)c3)CC2)=C(c2ccc(Cl)cc2)C1 [Venetoclax] + CCN(CCO)CCCOc1ccc2c(Nc3cc(CC(=O)Nc4cccc(F)c4)[nH]n3)ncnc2c1 [AZD2811] (first compound max 1 µM, 7x7, partner max 1 µM) | HT-3 (Cervical Carcinoma) | Bliss excess | -0.0129 |

====

Test system: NCI-H1944 (Lung Adenocarcinoma)
Assay: Bliss excess, mean over the matrix (fraction); higher = more synergy
reported-metric: Bliss excess

| molecule | reported |
| --- | --- |
| Cc1cc2ncnn2cc1Nc1ncc2c(n1)n(C1CCOCC1)c(=O)n2C [AZD7648] + CCN(CCO)CCCOc1ccc2c(Nc3cc(CC(=O)Nc4cccc(F)c4)[nH]n3)ncnc2c1 [AZD2811] (first compound max 10 µM, 7x7, partner max 1 µM) | 0.0709 |
| CC1(C)CCC(CN2CCN(c3ccc(C(=O)NS(=O)(=O)c4ccc(NCC5CCOCC5)c([N+](=O)[O-])c4)c(Oc4cnc5[nH]ccc5c4)c3)CC2)=C(c2ccc(Cl)cc2)C1 [Venetoclax] + C=CCn1c(=O)c2cnc(Nc3ccc(N4CCN(C)CC4)cc3)nc2n1-c1cccc(C(C)(C)O)n1 [AZD1775] (first compound max 1 µM, partner max 1 µM) | -0.0808 |
| COc1cccc2c1C(=O)c1c(O)c3c(c(O)c1C2=O)C[C@@](O)(C(=O)CO)C[C@@H]3O[C@H]1C[C@H](N)[C@H](O)[C@H](C)O1 [Doxorubicin] + Cc1cc2ncnn2cc1Nc1ncc2c(n1)n(C1CCOCC1)c(=O)n2C [AZD7648] (first compound max 1 µM, 7x7, partner max 10 µM) | 0.0739 |
| COc1cc2c(cc1OCCCCCOc1cc3c(cc1OC)C(=O)N1C=C(C)C[C@H]1C=N3)N=C[C@@H]1CC(C)=CN1C2=O [SG3199] + O=C(c1cc(Cc2n[nH]c(=O)c3ccccc23)ccc1F)N1CCN(C(=O)C2CC2)CC1 [Olaparib] (first compound max 0.001 µM, 7x7, partner max 10 µM) | -0.0259 |
| Cc1cc2ncnn2cc1Nc1ncc2c(n1)n(C1CCOCC1)c(=O)n2C [AZD7648] + O=C(c1cc(Cc2n[nH]c(=O)c3ccccc23)ccc1F)N1CCN(C(=O)C2CC2)CC1 [Olaparib] (first compound max 10 µM, 7x7, partner max 10 µM) | -0.033 |
| CC(=O)c1c(C)c2cnc(Nc3ccc(N4CCNCC4)cn3)nc2n(C2CCCC2)c1=O [Palbociclib] + CC1(C)CCC(CN2CCN(c3ccc(C(=O)NS(=O)(=O)c4ccc(NCC5CCOCC5)c([N+](=O)[O-])c4)c(Oc4cnc5[nH]ccc5c4)c3)CC2)=C(c2ccc(Cl)cc2)C1 [Venetoclax] (first compound max 10 µM, 7x7, partner max 1 µM) | 0.0257 |
| COc1cccc(OCCCN)c1-c1cc(Nc2cnc(C#N)cn2)n[nH]1 [Prexasertib] + CN(C)CCCOc1ccc(-c2ccc3ncc4c(c3c2)n(C2CCOCC2)c(=O)n4C)cn1 [AZD0156] (first compound max 1 µM, 7x7, partner max 1 µM) | 0.0331 |
